Reported GI50 values follow for various molecules
# Test system: UACC-62
# Experiment Description: NCI tumour cell line growth inhibition, 48 h
Activity calls are given as the source filed them. No stated cut-off is given here; in the data, active = GI50 up to about 1.1 µM and inactive = higher.

Problem: Which GI50 reading was recorded for the molecule "COc1ccc(CCN2CCN(CCc3ccc(OC)cc3)CC2)cc1" ?
Solution: > 100 µM (inactive)

Problem: May I ask what GI50 has been recorded for "COc1cc2c(c(O)c1OC)C(=O)[C@@H]1CCC(=O)N1C2" ?
Solution: > 100 µM (inactive)

Problem: Using the record for CC1(C)CCCC2(C)C3C(O)CC2(C)C(O)C31 (stereo unspecified) , report its GI50.
Solution: > 100 µM (inactive)

Problem: Please give the measured GI50 for this molecule: "CCN(CC)c1c(-c2c(OC(C)C)c(=O)c2=O)c(=O)n2ccsc2c1OC(C)=O"
Solution: > 100 µM (inactive)

Problem: Item C[C@H]1CCC2C(OC(=O)[C@@H]2CN(C)C)[C@]2(C)C(=O)C=CC12O (stereo partly specified) has what recorded GI50?
Solution: 2.55 µM (inactive)

Problem: Recorded GI50 of "Nc1ncnc2c1ccn2CC#CCO" , please.
Solution: > 100 µM (inactive)

Problem: Which GI50 is reported for this molecule? "O=C1COc2ccc([N+](=O)[O-])cc2C(=O)C1"
Solution: > 10 µM (inactive)

Problem: Can you share its GI50? I mean this molecule: "COc1ccc(CCNC(=O)c2ccccc2C2c3ccc(OCc4ccccc4)cc3Oc3cc(OCc4ccccc4)ccc32)cc1OC"
Solution: > 100 µM (inactive)

Problem: Consider the molecule shown here: CC1C(=O)OC2CC[N+]3(CC(=O)c4ccc(Br)cc4)CC=C(COC(=O)C(C)(O)C1(C)O)C23 (stereo unspecified) What is its recorded GI50?
Solution: > 375 µM (inactive)

Problem: Given the entry CC1OC(OC2C(O[C@H]3CC[C@@H]4C(=CC[C@@H]5[C@@]4(C)C(=O)C[C@]4(C)[C@@H]([C@H](C)CC[C@@H](O)C(C)(C)O)CC[C@@]54C)C3(C)C)OC(CO)C(O)C2O)C(O)C(O)C1O (stereo partly specified) , report its measured GI50.
Solution: > 100 µM (inactive)

Problem: What value of measured GI50 is listed for CN(CCCCCl)P(=O)(OCc1ccc([N+](=O)[O-])o1)OCC1OC(n2ccc(N)nc2=O)C(O)C1O (stereo unspecified) ?
Solution: 12.9 µM (inactive)

====

# Test system: COLO 205
# Experiment Description: NCI tumour cell line growth inhibition, 48 h
Calls of active or inactive are those of the source. Cut-off read from the data, not from the text of the source: active = GI50 up to about 1.1 µM and inactive = higher.
A correct response names exactly one class from T (active), F (inactive)

// below: answered compounds
{"Compound": "CCOP(=O)(OCC)/C(=C/c1cccs1)CC(C)=O", "Group Label": "F"}
{"Compound": "O=C1OC(c2ccccc2)=N/C1=C/N1CCCC1C(=O)O (stereo unspecified)", "Group Label": "F"}
{"Compound": "CC(CC(C#N)(c1ccccc1)c1ccccc1)N1CCCCC1 (stereo unspecified)", "Group Label": "F"}
{"Compound": "O=C1/C(=C\\c2ccc(Cl)cc2Cl)Sc2scc(-c3cccc([N+](=O)[O-])c3)[n+]21", "Group Label": "T"}
{"Compound": "CC1(c2cccc(C3CC4(CCC3=O)OCCCCO4)c2)OCCO1 (stereo unspecified)", "Group Label": "F"}

Problem: Query: recorded result category for CN(CCCCCl)P(=O)(OCc1ccc([N+](=O)[O-])o1)OCC1OC(n2ccc(N)nc2=O)C(O)C1O (stereo unspecified) in this test
Solution: T

Problem: Write down the call the test reported for this compound. Item: "CCCCN(CCCC)C(=O)/C(CC(=O)c1cccc2ccccc12)=N\NC(=O)c1cc2ccccc2cc1O"
Solution: F

Problem: State the result this test recorded for "CC(C)(C)[Si](C)(C)O/N=C\c1cccc(O[Si](C)(C)C(C)(C)C)c1" .
Solution: F

Problem: Test call for this compound, please: "O=C1C(=Cc2c(O)cc(O)cc2O)C(=O)c2ccccc21"
Solution: F

====

List of GI50 values.
# Test system: NCI-H522
# Experiment Description: NCI tumour cell line growth inhibition, 48 h
Activity calls are given as the source filed them. Cut-off read from the data, not from the text of the source: active = GI50 up to about 1.1 µM and inactive = higher.

Here are 5 compounds together with their reported answers.
{"Compound": "COc1cc(O)c2c(c1)OCC1(Cc3cc(OC)c(OC)cc31)C2=O (stereo unspecified)", "Test System": "NCI-H522", "GI50": "84.9 µM (inactive)"}
{"Compound": "C/C(=N\\NC(=S)N1CCC1)c1ccccn1", "Test System": "NCI-H522", "GI50": "< 0.0497 µM (active)"}
{"Compound": "N#CCCN(CCCN(C(=O)Nc1ccc(NC(=O)N(CCCN(CCC#N)C(N)=O)c2ccccc2)cc1)c1ccccc1)C(N)=O", "Test System": "NCI-H522", "GI50": "> 100 µM (inactive)"}
{"Compound": "CN(/N=C\\c1ccc2ccccc2c1)C1=NCCCCN1", "Test System": "NCI-H522", "GI50": "16.7 µM (inactive)"}
{"Compound": "Cc1n[nH]c(N)c1C(N)=O", "Test System": "NCI-H522", "GI50": "> 100 µM (inactive)"}

Problem: Recorded GI50 of "CCOC(=O)c1c(-c2ccc(OC)cc2)ccn1C" , please.
Solution: > 9.62 µM (inactive)

====

# Test system: HT-29
# Experiment Description: NCI tumour cell line growth inhibition, 48 h
Activity calls are given as the source filed them. Cut-off read from the data, not from the text of the source: active = GI50 up to about 1.1 µM and inactive = higher.
Experimental Readout: GI50

// solved cases for GI50 follow
{"Compound": "CN(C)CCNC(=O)C(C)(C)Oc1ccc(C(=O)c2ccc(Cl)cc2)cc1Cl", "Test System": "HT-29", "GI50": "2.56 µM (inactive)"}
{"Compound": "CNC(=O)c1nc[nH]c1/N=N/N(C)N", "Test System": "HT-29", "GI50": "> 100 µM (inactive)"}
{"Compound": "O=C(N/N=C/c1cc(Cl)cc(Cl)c1O)c1ccccc1O", "Test System": "HT-29", "GI50": "3.49 µM (inactive)"}
{"Compound": "[O-][S+](Cc1ccccc1)c1ccccc1Cn1cccc1 (stereo not drawn)", "Test System": "HT-29", "GI50": "> 100 µM (inactive)"}
{"Compound": "CCC(O)(c1ccc(OC)cc1)C(c1ccc(OCc2ccccc2)cc1)c1ccc(OCc2ccccc2)cc1 (stereo not drawn)", "Test System": "HT-29", "GI50": "> 100 µM (inactive)"}

Problem: Which GI50 reading was recorded for the compound "Cn1nc(N)nc1N=S(C)(C)=N" ?
Solution: > 100 µM (inactive)

Problem: Record request: GI50 value, item CCN(CC)c1c(C)nnn1C1OC(COC(C)=O)C(OC(C)=O)C(OC(C)=O)C1OC(C)=O (stereo not drawn)
Solution: > 100 µM (inactive)

Problem: Entry "Cc1c2cccc-2c(OCCO)cc2c3ccccc3n(C)c12" has what GI50?
Solution: 4.24 µM (inactive)

Problem: # query: GI50 of entry "CN(C)CCNC(=O)Cn1ccc(=O)c2ccc([N+](=O)[O-])cc21"
Solution: 52 µM (inactive)

Problem: Recorded GI50 of CN(C(=S)Cc1ccc(Cl)c(Cl)c1)C1CCCC[C@@H]1N1CCCC1 (stereo partly drawn) , please.
Solution: 16.7 µM (inactive)

====

# System: HCT-15
# Experiment Description: NCI tumour cell line growth inhibition, 48 h
Experimental Readout: GI50 (µM)
# number only, unit µM dropped from output

Problem: Recall the recorded GI50 for "CCn1c2nc(=O)n(CCCCCCCCSC(c3ccccc3)(c3ccccc3)c3ccccc3)c(=O)c-2nc2ccccc21" with HCT-15 and state it.
Solution: 8.38

Problem: Recall the recorded GI50 for O=C(O)C1C(C(=O)O)C23CC2(C(=O)O)C2(C(=O)O)CCC3=C3CCCC312 (configuration not stated) with HCT-15 and state it.
Solution: 15.1

Problem: Reported GI50 for HCT-15, given c1cc2c(cc1C1OCC3C(c4ccc5c(c4)OCO5)OCC13)OCO2 (configuration not stated) ?
Solution: 50.6

Problem: Requested read-out GI50, target or system HCT-15, entry "COc1ccc2c(c1O)[C@@]13C=C(O)C(=O)C=C1[C@@H](C2)N(C)CC3"
Solution: 68.7

Problem: For HCT-15, provide GI50 of CC1C(O)[C@@]2(OC[C@@]34C(=O)CC5(O)[C@H](CCC6Cc7nc8c(nc7C[C@]65C)CC5CC[C@@H]6C7=C[C@H]9O[C@@]%10(O[C@@](C)(CO)C[C@@H]%10O)C(C)[C@@]9(O)[C@]7(C)[C@@H](O)CC6[C@]5(C)C8)C3=CC[C@H]4C2C)OC1(C)C (some centres not stated) please.
Solution: 0.00667

Problem: Report GI50 for "COc1cc(CCCOC(=O)/C=C/c2ccc(O)c(O)c2)cc(O)c1O" tested on HCT-15.
Solution: 91.8

Problem: Item C=CC(c1ccccc1)C1(O)c2cccc(O)c2C(=O)c2c(O)cccc21 (configuration not stated) with HCT-15 - GI50?
Solution: 10.8

Problem: Could you share what GI50 was measured for "O=S(=O)(O)c1ccc(-c2c3nc(c(-c4ccc(S(=O)(=O)O)cc4)c4ccc([nH]4)c(-c4ccc(S(=O)(=O)O)cc4)c4nc(c(-c5ccc(S(=O)(=O)O)cc5)c5ccc2[nH]5)C=C4)C=C3)cc1" , tested on HCT-15?
Solution: 26.4

Problem: // lookup GI50 | system=HCT-15 | key= "N/N=C(\N)SCCCCCCCCCCS/C(N)=N/N"
Solution: 14.3

Problem: Test system HCT-15; read-out GI50; what value for "Cc1cc2nc(N3C(=O)/C(=C/c4ccccc4S)N=C3c3ccccc3)sc2cc1C" ?
Solution: 32.7
